pEC50 values, listed per item
biological target: human α7 nAchR (Homo sapiens, UniProt P36544); experiment: Human α7 nicotinic acetylcholine receptor [Ca2+]i assay (Ca2+ fluorometry, PAM concentration-response); conditions: Flp-In 293 cells expressing human α7 nAchR and human RIC-3; in presence of saturating agonist (mostly PNU-282987, 1 μM)
Sequence (P36544 23-502): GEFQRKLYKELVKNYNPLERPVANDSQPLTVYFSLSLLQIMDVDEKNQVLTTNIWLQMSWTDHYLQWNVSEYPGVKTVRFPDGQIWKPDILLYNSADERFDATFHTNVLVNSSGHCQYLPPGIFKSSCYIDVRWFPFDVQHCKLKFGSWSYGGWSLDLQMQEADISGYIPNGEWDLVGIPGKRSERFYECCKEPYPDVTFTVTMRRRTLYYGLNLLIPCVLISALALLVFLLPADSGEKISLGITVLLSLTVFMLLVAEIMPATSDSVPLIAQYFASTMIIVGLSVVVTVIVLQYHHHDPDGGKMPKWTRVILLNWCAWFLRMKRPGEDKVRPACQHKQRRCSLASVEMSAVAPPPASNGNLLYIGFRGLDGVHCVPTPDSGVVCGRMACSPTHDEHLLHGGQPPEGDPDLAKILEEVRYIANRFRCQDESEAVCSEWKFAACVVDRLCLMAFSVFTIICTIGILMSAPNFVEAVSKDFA
Bear in mind: pEC50 is minus log10 of a mol/L concentration; give just that figure.

Study these solved cases before continuing.
- compound: "Cn1ccc2cc(CNC(=O)N3CC4(CC(=O)c5ccc(F)cc5O4)C3)ccc21"
  tgt: "human α7 nAchR (Homo sapiens, UniProt P36544)"
  pEC50: 6.72
- compound: "COc1ccc2c(c1)C(=O)CC1(CN(C(=O)NCc3ccc4c(c3)c(Cl)cn4C)C1)O2"
  tgt: "human α7 nAchR (Homo sapiens, UniProt P36544)"
  pEC50: 6.64
- compound: "Cn1ccc2cc(CNC(=O)N3CCC4(CCc5cc(Cl)ccc5O4)CC3)ccc21"
  tgt: "human α7 nAchR (Homo sapiens, UniProt P36544)"
  pEC50: 7.00
- compound: "Cc1cc2cc(CNC(=O)N3CC4(CC(=O)c5cc(F)cc(F)c5O4)C3)ccc2[nH]1"
  tgt: "human α7 nAchR (Homo sapiens, UniProt P36544)"
  pEC50: 7.22
- compound: "Cn1ccc2cc(CNC(=O)N3CC4(CC(=O)c5cc(Cl)cc(Cl)c5O4)C3)cnc21"
  tgt: "human α7 nAchR (Homo sapiens, UniProt P36544)"
  pEC50: 6.33
- compound: "Cn1ccc2cc(CNC(=O)N3CCC4(CC(=O)c5cc(Cl)ccc5O4)C3)ccc21 (single isomer, unassigned) [Example 5b]"
  tgt: "human α7 nAchR (Homo sapiens, UniProt P36544)"
  pEC50: 6.40
- compound: "COc1ccc2c(c1)OC1(CCN(C(=O)NCc3ccc4c(ccn4C)c3)CC1)CC2=O"
  tgt: "human α7 nAchR (Homo sapiens, UniProt P36544)"
  pEC50: 6.55
- compound: "Cn1ccc2cc(CNC(=O)N3CC4(CC(=O)c5cc(Cl)ccc5O4)C3)ccc21"
  tgt: "human α7 nAchR (Homo sapiens, UniProt P36544)"
  pEC50: 6.92

// assay human α7 nAchR (Homo sapiens, UniProt P36544), entry CN1CCCc2cc(CNC(=O)N3CC4(CC(=O)c5ccc(F)cc5O4)C3)ccc21 , pEC50 value = 5.64

// assay human α7 nAchR (Homo sapiens, UniProt P36544), entry Cn1cc(F)c2cc(CNC(=O)N3CC4(CC(=O)c5cc(F)ccc5O4)C3)ccc21 , pEC50 value = 6.66

// assay human α7 nAchR (Homo sapiens, UniProt P36544), entry Cn1cc(Br)c2cc(CNC(=O)N3CC4(CC(=O)c5cc(F)ccc5O4)C3)cnc21 , pEC50 value = 6.07

// assay human α7 nAchR (Homo sapiens, UniProt P36544), entry Cc1cc2cc(CNC(=O)N3CC4(CC(=O)c5cc(F)ccc5O4)C3)ccc2[nH]1 , pEC50 value = 6.92

// assay human α7 nAchR (Homo sapiens, UniProt P36544), entry Cn1ccc2cc(CNC(=O)N3CCC4(CC(=O)c5cc(Cl)ccc5O4)C3)ccc21 (single isomer, unassigned) [Example 5a] , pEC50 value = 6.37

// assay human α7 nAchR (Homo sapiens, UniProt P36544), entry Cn1ccc2cc(CNC(=O)N3CCC4(CC(=O)c5cc(Cl)ccc5O4)C3)ccc21 (racemic) [Example 5] , pEC50 value = 6.68

// assay human α7 nAchR (Homo sapiens, UniProt P36544), entry Cn1ccc2cc(CNC(=O)N3CC4(CC(=O)c5ccc(C(F)(F)F)cc5O4)C3)cnc21 , pEC50 value = 6.30

// assay human α7 nAchR (Homo sapiens, UniProt P36544), entry Cn1cc(Cl)c2cc(CNC(=O)N3CC4(CC(=O)c5cc(F)ccc5O4)C3)cnc21 , pEC50 value = 6.14

// assay human α7 nAchR (Homo sapiens, UniProt P36544), entry Cn1ccc2cc(CNC(=O)N3CC4(CC(=O)c5ccccc5O4)C3)ccc21 , pEC50 value = 6.64

// assay human α7 nAchR (Homo sapiens, UniProt P36544), entry O=C1CC2(CN(C(=O)NCc3ccc4[nH]ccc4c3)C2)Oc2ccc(Cl)cc21 , pEC50 value = 6.41

// assay human α7 nAchR (Homo sapiens, UniProt P36544), entry Cn1cc(Cl)c2cc(CNC(=O)N3CC4(CC(=O)c5ccccc5O4)C3)ccc21 , pEC50 value = 6.89

// assay human α7 nAchR (Homo sapiens, UniProt P36544), entry O=C1CC2(CN(C(=O)NCc3ccc4[nH]c(Cl)cc4c3)C2)Oc2cc(Cl)ccc21 , pEC50 value = 6.44

// assay human α7 nAchR (Homo sapiens, UniProt P36544), entry O=C1CC2(CN(C(=O)NCc3ccc4[nH]c(C(F)F)cc4c3)C2)Oc2cc(F)ccc21 , pEC50 value = 6.92

// assay human α7 nAchR (Homo sapiens, UniProt P36544), entry Cn1ccc2cc(CNC(=O)N3CC4(CC(=O)c5ccc(C(F)(F)F)cc5O4)C3)ccc21 , pEC50 value = 6.89

// assay human α7 nAchR (Homo sapiens, UniProt P36544), entry Cn1ccc2cc(CNC(=O)N3CC4(CC(=O)c5cc(C(F)(F)F)ccc5O4)C3)ccc21 , pEC50 value = 6.82

// assay human α7 nAchR (Homo sapiens, UniProt P36544), entry Cc1cc2cc(CNC(=O)N3CC4(CC(=O)c5ccc(C(F)(F)F)cc5O4)C3)cnc2n1C , pEC50 value = 6.12
